- assay.summary: MTT mortality on normal fibroblasts (control)
- Assay type: cell-based
- stated.conditions: human, primary dermal fibroblast normal cells, data from IC50 (µM)
For each entry below, report its mortality at 24 h value.
Could you kindly put the unit after your number?

| compound | metric.name | observed.measurement |
| --- | --- | --- |
| CC1=C(O)C(=O)C(C(C)CCC(O)C(C)(C)O)=CC1=O (stereo not shown) | mortality at 24 h | 68.7% |
| CC1=C(O)C(=O)C(C(C)CCC2OC2(C)C)=CC1=O (stereo not shown) | mortality at 24 h | 42.4% |
| CC(=O)OC(C)(C)C(O)CCC(C)C1=C(O)C(=O)C(C)=CC1=O (stereo not shown) | mortality at 24 h | 96.8% |
| CC1=CC(=O)C(C(C)CCC2OC2(C)C)=C(O)C1=O (stereo not shown) | mortality at 24 h | 19.5% |
| CC1=CC(=O)C(C(C)CCC2OC(C)(C)OC2(C)C)=C(O)C1=O (stereo not shown) | mortality at 24 h | 90.7% |
| CC1=C(O)C(=O)C(C(C)CCC2OC(C)(C)OC2(C)C)=CC1=O (stereo not shown) | mortality at 24 h | 18.4% |

Then this compound:
INPUT: Endpoint output: mortality at 24 h of CC1=CC(=O)C(C(C)CCC(O)C(C)(C)O)=C(O)C1=O (stereo not shown) . Value?
OUTPUT: 46.4%
